Values were extracted from PubChem BioAssay (NCI).

test: NCI Yeast Anticancer Drug Screen. Data for the mec2-1 strain (AID 157); conditions: S. cerevisiae mec2-1 strain, at 50.0 µM, stronger effect = higher value
The panel holds about 79,000 compounds, 15% with a hit somewhere; the sample as a whole holds those more often.
propertyName: growth inhibition (%)
Answer with a number only, understood to be in %.

COC(=O)c1nnn(-c2ccccc2C(C)C)c1C(=O)c1ccccc1
-8.85
Cc1ccc2c(c1O)C(=O)c1ccccc1C2=O
13.1

Reported growth inhibition for "CCCCCCCCCCCCCCCCCC(=O)NC(=O)Nc1ccc(C)cc1" was 17.6

---

Attribute: growth inhibition
assay: NCI Yeast Anticancer Drug Screen. Data for the cln2 rad14 strain (AID 165);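 note: 0% = growth equal to vehicle treated cultures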; conditions: S. cerevisiae cln2 rad14 strain, at 50.0 µM, stronger effect = higher value
This is part of a sample that, as a whole, favours compounds with a hit. Of some 79,000 tested, about 15% had one in any assay.
Answer with a number only, understood to be in %.

# count of solved cases: 3
CC(c1ccccc1O)C1CCCCC1N=O (centres undefined)
-48.5
CCOc1nc(C)cc(C(=O)OC)c1C#N
17.4
CCCCC(O)c1ccc[n+]([O-])c1 (centres undefined)
2.95

Here's the next entry for you.
Reported growth inhibition for O=C1C(=Nc2ccc(Cl)nc2)CC(c2ccccc2)N1c1ccc(Cl)nc1 (centres undefined) was 22.4

---

Attribute: growth inhibition
experiment: NCI Yeast Anticancer Drug Screen. Data for the bub3 strain (AID 167); conditions: S. cerevisiae bub3 mutant strain, at 50.0 µM, stronger effect = higher value
About 79,000 compounds went through this panel and 15% of them were active in at least one assay; those are over-represented in the sample as a whole.
Answer with a number only, understood to be in %.

# count of solved cases: 4
CC(=O)OCC1OC(N2C(=O)/C(=C/c3ccc4c(c3)OCO4)SC2=S)C(OC(C)=O)C(OC(C)=O)C1OC(C)=O (stereo unspecified)
0.15
Cc1cc(C)c2c(c1)CSCc1cc(C)cc(C)c1-2
1.05
COc1ccc2c(c1)OC(=O)C(S(=O)(=O)c1ccccc1)C2 (stereo unspecified)
1.2
N#C/C(=C\c1cccc(Br)c1)c1nc2ccccc2c(=O)[nH]1
-14.4

Reported growth inhibition for "CC(=O)c1cccc(C(C)=O)n1" was -19.8

Reported growth inhibition for "Cc1oc2cc(O)ccc2c(=O)c1-c1ccccc1Br" was 15.9

---

Attribute: growth inhibition
assay: NCI Yeast Anticancer Drug Screen. Data for the mec2-1 strain (AID 157); settings: S. cerevisiae mec2-1 strain, at 50.0 µM, stronger effect = higher value
About 79,000 compounds went through this panel and 15% of them were active in at least one assay; those are over-represented in the sample as a whole. Active and inactive are the calls of the source. No stated cut-off is given here; in the data, active means growth inhibition above about 70%; inactive means the rest.

# count of solved cases: 4
CNCc1ccccc1
-2.8% (inactive)
OC(CBr)CBr
-7.45% (inactive)
COc1cc(C(=O)O)c([N+](=O)[O-])c(OC)c1OC
-6.35% (inactive)
Cc1ccc(S(=O)(=O)NC2C(=O)c3ccccc3C(=O)C2n2cnc3ccccc32)cc1 (stereo not drawn)
1.8% (inactive)

Reported growth inhibition for "CC(C)(C)c1ccc(SCC#CCOc2ccc(Cl)cc2)cc1" was 4.2% (inactive)

Reported growth inhibition for CCCCCCC(O)C/C=C\CCCCCCCCO (stereo not drawn) was -20.9% (inactive)

Reported growth inhibition for "O=C1CCC(=O)N1Cc1ccc(Cl)cc1" was 5.5% (inactive)

Reported growth inhibition for "CC(=O)Nc1ncc(Sc2ccc([N+](=O)[O-])cc2)s1" was -30.9% (inactive)

Reported growth inhibition for "CCOC(=O)c1cc(=O)c2cccc(C)c2[nH]1" was 10.7% (inactive)

Reported growth inhibition for "C(=N/OCc1ccccc1)/c1ccncc1" was 27.6% (inactive)

Reported growth inhibition for COCC1(c2ccccc2)NC(=O)N(C)C1=O (stereo not drawn) was -2.15% (inactive)

Reported growth inhibition for "Nc1ccc(S(=O)(=O)NO)cc1" was -3.95% (inactive)

Reported growth inhibition for "NC1=NCCN1" was 11.3% (inactive)

Reported growth inhibition for "CC(C)=C1C=CC=C1" was 0.65% (inactive)

---

assay: NCI Yeast Anticancer Drug Screen. Data for the mec2-1 strain (AID 157); conditions: S. cerevisiae mec2-1 strain, at 50.0 µM, stronger effect = higher value
Compounds without any hit were thinned out: in the full panel of roughly 79,000, 15% have a hit. Active and inactive are the calls of the source. Cut-off read from the data, not from the text of the source: active = growth inhibition above about 70%; inactive = the rest. Where a SMILES comes first, the peptide text is derived from it. The star is where a group is joined. Boc = CC(C)(C)OC(=O)*
propertyName: growth inhibition

# count of solved cases: 10
O=C(O)C(SSC(C(=O)O)(c1ccccc1)c1ccccc1)(c1ccccc1)c1ccccc1
21.5% (inactive)
CC12C=CC(=O)C=C1CCC1C2C(O)CC2(C)/C(=C\CO)CCC12 (configuration not stated)
-1.75% (inactive)
C=C(C)COc1ccc(C2OCC(CC)C(CCC)O2)cc1 (configuration not stated)
-10.6% (inactive)
CCOC(=O)CC1(C)OCC(c2ccccc2)O1 (configuration not stated)
-0.55% (inactive)
C=C(C)Cc1cc(C(CC)C(CC)c2ccc(O)c(CC(=C)C)c2)ccc1O (configuration not stated)
20.4% (inactive)
Cc1cc(=O)oc2c(-c3ccccc3)nnc(Cl)c12
15% (inactive)
O=C1CCCNC(=O)CCCN1
-9.55% (inactive)
O=C1OCC(O)C(O)C(O)C(O)C1O (configuration not stated)
27.3% (inactive)
CN(C)c1nc(N(C)C)c2cnn(C)c2n1
3.7% (inactive)
CCC(SC)C(=O)N(C)c1ccccc1 (configuration not stated)
-15.3% (inactive)

Reported growth inhibition for "N#C/C(=N\NC(=O)c1cccs1)c1ccccc1Cl" was 1.2% (inactive)

Reported growth inhibition for COC(=O)C(Cc1c[nH]c2ccccc12)NC(=O)C(Cc1c[nH]c2ccccc12)NC(=O)C(Cc1c[nH]c2ccccc12)NC(=O)C(Cc1c[nH]c2ccccc12)NC(=O)OC(C)(C)C (configuration not stated) (Boc-WWWW-OMe; configuration not given here) was -4.65% (inactive)

Reported growth inhibition for "CCCCCCCCCCCC(=O)Oc1c(Cl)cc(Cl)c(OC(=O)C(=O)Oc2c(Cl)cc(Cl)c(OC(=O)CCCCCCCCCCC)c2Cl)c1Cl" was -21.9% (inactive)

Reported growth inhibition for "CC(C)(CO)N1CCN(C(=S)Nc2ccccc2)CC1" was -2.6% (inactive)

Reported growth inhibition for "CN(C(=O)Sc1ccc([N+](=O)[O-])cc1)c1ccc([N+](=O)[O-])cc1" was 15.2% (inactive)

Reported growth inhibition for "Brc1cc(Br)cc(-c2nnc(-c3cccc4ccccc34)o2)c1" was -16.4% (inactive)

---

Attribute: growth inhibition
test: NCI Yeast Anticancer Drug Screen. Data for the rad50 strain (AID 155);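 note: 0% = growth of vehicle-only cultures of the same strain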; conditions: S. cerevisiae rad50 strain growth inhibition; at 50.0 µM; stronger effect = higher value
This is part of a sample that, as a whole, favours compounds with a hit. Of some 79,000 tested, about 15% had one in any assay.
Answer with a number only, understood to be in %.

# count of solved cases: 3
O=C(c1ccc(O)cc1)C1N=NCC1c1ccccc1 (stereo not drawn)
-15.8
CCCCCC/C(C=O)=C\c1ccccc1
31.8
O=C(NCC(O)CNC(=O)C(F)(F)F)C(F)(F)F
5.2

Reported growth inhibition for "CCOC(=O)NC(=O)c1cn(CCN2CCN(C(=O)NCCCCCCNC(=O)N3CCN(CCn4cc(C(=O)NC(=O)OCC)c(=O)[nH]c4=O)CC3)CC2)c(=O)[nH]c1=O" was -12.3

Reported growth inhibition for COc1cccc(NC(=O)CC(=O)N2N=C(n3ccc4ccccc43)CC2c2ccccc2)c1 (stereo not drawn) was -36.3

Reported growth inhibition for "CCOC(=O)c1ccc(NC(=O)Sc2ccccc2C)cc1" was 5.55

Reported growth inhibition for "O=c1nc(Oc2ccccc2)nc2c3ccccc3ccn12" was -5.4

Reported growth inhibition for "N#CCCc1c(-c2ccccc2)nc(N)[nH]c1=O" was 2.35

Reported growth inhibition for "CC(C)/C(Cl)=N/OC(=O)Nc1ccc(Br)cc1" was 34.6

Reported growth inhibition for "Nc1ccc(C(=O)O)cc1Cl" was 0.85

---

test: NCI Yeast Anticancer Drug Screen. Data for the sgs1 mgt1 strain (AID 161);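 note: 0% = growth of cultures given vehicle only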; conditions: S. cerevisiae sgs1 mgt1 strain, at 50.0 µM, stronger effect = higher value
The panel holds about 79,000 compounds, 15% with a hit somewhere; the sample as a whole holds those more often. Calls of active or inactive are those of the source. Rule as the data show it: active = growth inhibition above about 70%; inactive = the rest.
Attribute: growth inhibition

# count of solved cases: 3
CC(=O)CC(=O)c1cc(C(C)=O)c(O)c(C(C)=O)c1
11% (inactive)
Cc1nc(N)[nH]c(=O)c1CCCN(c1ccccc1)S(=O)(=O)c1ccc(N)cc1
-2.3% (inactive)
Cc1nc(N)[nH]c(=O)c1N
8.25% (inactive)

Reported growth inhibition for "CCCCCCCCCCCn1cnc2c(=S)nc[nH]c21" was -17.1% (inactive)

Reported growth inhibition for "COc1ccc(N=C(N)N2CCCc3ccccc32)cc1" was 0.55% (inactive)

Reported growth inhibition for Cc1ccc(S(=O)(=O)OC(c2ccc(Cl)cc2Cl)C2OC(=O)c3ccccc32)cc1 (stereo not drawn) was 16.9% (inactive)
